# study_system: human Fab of κ-type (Homo sapiens, UniProt P01834+P01857)
# Sequence (P01857 with tags, fused parts or gaps, other chains not shown): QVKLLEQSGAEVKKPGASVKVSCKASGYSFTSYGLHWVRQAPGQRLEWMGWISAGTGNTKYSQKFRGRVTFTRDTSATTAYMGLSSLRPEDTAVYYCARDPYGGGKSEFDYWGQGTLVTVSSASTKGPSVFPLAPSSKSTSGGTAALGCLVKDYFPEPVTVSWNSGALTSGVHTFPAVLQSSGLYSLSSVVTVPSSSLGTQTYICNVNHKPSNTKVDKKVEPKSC
# assay_details: STD NMR screening (1D saturation transfer difference) for binding to antibody
# Set-up: key: 0 no; 1 weak; 2 strong signal
# run_conditions: 500 nM antibody, 0.5 mM ligand, 298 K
endpoint: NMR signal conc 1
Simply state the number, no unit and no words.

IN: Form field: NMR signal conc 1 recorded for O=C1C=CC(=O)N1c1cccc(Cl)c1 [AB_0001090, n-(3-chlorophenyl)-maleimide] with human Fab of κ-type (Homo sapiens, UniProt P01834+P01857) (enter value)
OUT: 1

IN: NMR signal conc 1 of CC1CN=C(SCc2ccccc2)N1.Cl (centres unmarked) [AB_0001080] on human Fab of κ-type (Homo sapiens, UniProt P01834+P01857)?
OUT: 0

IN: Request body: readout NMR signal conc 1, system human Fab of κ-type (Homo sapiens, UniProt P01834+P01857), query O=C(Cc1ncon1)Nc1ccc(F)cc1F [AB_0000690] . Return the value.
OUT: 0

IN: Quick check: NMR signal conc 1 on human Fab of κ-type (Homo sapiens, UniProt P01834+P01857), item O=C(COc1ccc2ccccc2c1)ON1C(=O)CCC1=O [AB_0001230] ?
OUT: 0

IN: Lookup: NMR signal conc 1 / human Fab of κ-type (Homo sapiens, UniProt P01834+P01857) / Cc1cc(C)nc(SCC(=O)Nc2ccc(F)c(Cl)c2)n1 [AB_0000580]
OUT: 1

IN: For the record c1ccc(CCn2cc(-c3ccncc3)cn2)cc1 [AB_0001190] , what value of NMR signal conc 1 is listed for human Fab of κ-type (Homo sapiens, UniProt P01834+P01857)?
OUT: 2

IN: Param readout= NMR signal conc 1; system= human Fab of κ-type (Homo sapiens, UniProt P01834+P01857); entry= Fc1cc(F)cc(Cc2nc(-c3cccs3)no2)c1 [AB_0001020] ; returns value.
OUT: 1

IN: GET /values?readout=NMR signal conc 1&system=human Fab of κ-type (Homo sapiens, UniProt P01834+P01857)&item= Sc1nnc(-c2csc(-c3ccccc3)n2)o1 [AB_0000760]
OUT: 1
